- Experimental details: Solubility of compound in 15% DMSO by spectrophotometric analysis
- Assay type: physicochemical
Answer each item with its documented solubility.
One number for each entry, in µM.

Take a look at these entries with their results.
# Smiles code, Unit tag, solubility
measured = [
    ("CC(C)(C)C(=O)OCn1c(=O)c(C#Cc2ccc3c4cccc5cccc(c6cccc2c63)c54)cn(CC(=O)NCCCCO)c1=O", "µM", 5.3),
    ("CC(C)(C)C(=O)OCn1c(=O)c(C#Cc2ccc3c4cccc5cccc(c6cccc2c63)c54)cn(CC(=O)N(CCO)CCO)c1=O", "µM", 1000),
]

Next, consider the following compound.
# query: solubility of entry `CC(C)(C)C(=O)OCn1c(=O)c(C#Cc2ccc3c4cccc5cccc(c6cccc2c63)c54)cn(CC(=O)NCCCO)c1=O`
49
